- System tested: T1, Human GPR7 (human, UniProt P48145 1-328)
- T1 sequence: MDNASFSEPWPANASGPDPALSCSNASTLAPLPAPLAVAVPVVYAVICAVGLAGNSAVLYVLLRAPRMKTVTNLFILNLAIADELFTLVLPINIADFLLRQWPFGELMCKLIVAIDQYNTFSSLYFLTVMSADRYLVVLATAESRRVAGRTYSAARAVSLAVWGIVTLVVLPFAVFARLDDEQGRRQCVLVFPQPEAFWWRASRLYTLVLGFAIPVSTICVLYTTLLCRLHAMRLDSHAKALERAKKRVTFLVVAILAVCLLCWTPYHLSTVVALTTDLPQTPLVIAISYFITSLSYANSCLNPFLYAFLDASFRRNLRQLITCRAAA
- Run description: cell-based or functional assay
No end group written: not given here.
Label t when Promoting activity to GTPγS binding (EC50 nM) is strictly below 80 nM; at or above that, label f.

>  <Binder>
WYKHVASPRYHTVGRAAGLL (also called hGPR8L(1-20)) [Human GPR8 ligand (1-20)]

>  <Class assignment>
t

$$$$
>  <Binder>
RYHTVGRAAGLLMGL (also called hGPR8L(9-23)) [Human GPR8 ligand (9-23)]

>  <Class assignment>
f

$$$$
>  <Binder>
WYKHVASPRYHTVGRAAGLLMGL (also called hGPR8L(1-23); Human GPR8 ligand (1-23)) [human homologue of GPR8 ligand peptide consisting of 23 residues]

>  <Class assignment>
t

$$$$
>  <Binder>
Ac-YKHVASPRYHTVGRAAGLLMGL (also called Ac-hGPR8L(2-23)) [[N-Acetyl-Tyr^2]-Human GPR8 ligand (2-23)]

>  <Class assignment>
f

$$$$

Enquiry: Is Promoting activity to GTPγS binding (EC50 nM) of XYKHVASPRYHTVGRAAGLLMGL (D-Trp at position 1, also called [D-Trp^1]-hGPR8L(1-23)) [[D-Trp^1]-Human GPR8 ligand (1-23)] strictly below 80 nM?
Return: t

Enquiry: What about this binder? WYKHVASPRYHTVGRAAG (also called hGPR8L(1-18)) [Human GPR8 ligand (1-18)]
Return: f

Enquiry: Input WYKHVASPRYHTVGRAAGL (also called hGPR8L(1-19)) [Human GPR8 ligand (1-19)]
Return: f

These entries and their values trace back to patent US20050124539A1.
